Test system: ERK5;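 further: KINOMEscan kinase panel screen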
Construct: gene MAPK7
Conditions: concentration: 1 μM,replicates: in singlicate; n = 1
parameter: %Inh

• Nc1nc(Nc2ccccc2)cc(-c2ccc3c(N)n[nH]c3c2)n1 = 0%
• CN(C)CC(O)COc1ccc(Nc2nccc(-c3cnn4nc(N5CCOCC5)ccc34)n2)cc1 (centres unmarked) = 33%
• Cc1ccc(-n2nc(C(C)(C)C)cc2NC(=O)Nc2ccc(OCCN3CCOCC3)c3ccccc23)cc1 = 0%
• C[C@@H](Oc1cc(-c2cnn(C3CCNCC3)c2)cnc1N)c1c(Cl)ccc(F)c1Cl = 77%
• COc1ccc(C[C@@H](CN)NC(=O)c2cc(Br)c(-c3ccnc4[nH]ccc34)s2)cc1.Cl.Cl = 0%
• Cc1ccc2c(-c3ccncc3)c(-c3ccc(F)cc3)nn2c1.Cl = 6%
• Cl.Cl.NC[C@H](Cc1ccc(C(F)(F)F)cc1)NC(=O)c1cc(Br)c(-c2ccnc3[nH]ccc23)s1 = 0%
• CC(C)N1C(=O)Cc2cc(Nc3ncc(C(F)(F)F)c(NCc4cccc(S(C)(=O)=O)c4)n3)ccc21 = 14%
• Cl.Oc1cc(-c2nc(-c3ccccc3)[nH]c2-c2ccncc2)ccc1Cl = 42%
• Cc1occc1-c1nc(N)c(OC[C@@H](N)Cc2c[nH]c3ccccc23)cc1-c1cc2c(C)n[nH]c2cn1 = 0%
• C[C@H]1Oc2cc(cnc2N)-c2c(nn(C)c2C#N)CN(C)C(=O)c2ccc(F)cc21 = 44%
• CNC(=O)c1ccccc1Sc1ccc2c(/C=C/c3ccccn3)n[nH]c2c1 = 0%
• CN(C)CCOc1ccc(-c2cc(-c3c[nH]nc3-c3ccccn3)ccn2)cc1 = 0%
• CCN(CC)CCOc1ccc(Nc2ncc3cc(-c4c(Cl)cccc4Cl)c(=O)n(C)c3n2)cc1 = 85%
• Cc1n[nH]c2ccc(-c3cc(OC[C@@H](N)Cc4ccccc4)cnc3-c3ccoc3)cc12.O=C(O)C(F)(F)F.O=C(O)C(F)(F)F = 0%
• Cl.Cl.Nc1nc(-c2ccc3c(N)n[nH]c3c2)cc(N2CCCC(NC(=O)c3ccccc3)C2)n1 (centres unmarked) = 14%
• C=CC(=O)Nc1cc2c(Nc3ccc(F)c(Cl)c3)ncnc2cc1OCCCN1CCOCC1 = 0%
